System: KM12 colon
method_summary: NCI tumour cell line growth inhibition, 48 h
property_name: TGI

Example results:
Nc1c(-c2ccc(Cl)c(Cl)c2)c2ccc([N+](=O)[O-])cc2c(=O)n1-c1nc2ccccc2s1 | > 100 µM
COc1ccc(C(=C2C=CC=C2)c2ccc(OC)cc2)cc1 | > 100 µM

Let us move to another entry and its TGI.
Q. Request body: readout TGI, system KM12 colon, query `COc1ccc(N=NC(=Nc2ccccc2)c2ccc(N(CCC#N)CCC#N)cc2)cc1` . Return the value.
A. > 100 µM

###

Below is a list of entries, each paired with its recorded TGI value.
System: CCRF-CEM leukemia
method_summary: NCI tumour cell line growth inhibition, 48 h

Examples with their reported TGI follow.
O=C(/C(=C/c1ccc([N+](=O)[O-])cc1)SCc1ccccc1)c1ccc(Cl)cc1 | > 100 µM
COc1ccc(-c2[nH]c3c4c(nc5c(c24)C(=O)CC(C)(C)C5)CC(C)(C)C3)cc1 | > 100 µM
CN(C)CCn1c2c3ccccc3ccc2c2oc(=O)c3ccccc3c21 | > 100 µM
O=C(/C=C/c1ccc(O)cc1)c1ccc(O)cc1 | > 85 µM
O=C(/C=C/c1ccc2c(c1)OCO2)Cc1nc2ncccc2[nH]c1=O | > 100 µM

Turning to the following compound.
Q. Dear colleague, I am looking for the recorded TGI of the following compound: `Nc1nc2c(c(-c3cccc(Cl)c3)n1)COC/C2=C\c1cccc(Cl)c1`
A. > 100 µM

###

Known TGI of a selection of compounds
System: M14 melanoma
method_summary: NCI tumour cell line growth inhibition, 48 h

Cc1cccc(Cn2c3c(c4cc(O)ccc42)C(=O)c2ccccc2C3=O)c1 | > 100 µM
Cc1cc(Nc2ccc(S(=O)(=O)O)c3cc(S(=O)(=O)O)cc(S(=O)(=O)O)c23)c2ccccc2n1 | > 100 µM

Q. Requested field: TGI. Item: `Cc1oc2c(cc(O)c3cc(O)ccc32)c2cccc1-2`
A. > 100 µM

Q. Next record, please: `Cc1ccc(-c2csc(=Nc3ccccc3)n2NC(=O)c2ccncc2)cc1`
A. > 100 µM

Q. Same thing, different compound: `CCOC(=S)SCC(=O)O`
A. > 100 µM

Q. Could you do the same for `N[C@@H]1CCCC[C@@H]1N.O=P([O-])([O-])CN(CCN(CP(=O)([O-])[O-])CP(=O)([O-])[O-])CP(=O)([O-])[O-].[Pt+2]` , please?
A. > 25 µM

###

TGI by entry:
Tested on: LOX IMVI melanoma
method_summary: NCI tumour cell line growth inhibition, 48 h

As a guide, the following entries are already answered.
CC1(C)OC1COc1c2occc2cc2ccc(=O)oc12 (stereo not given) | > 100 µM
C=CC[C@H](C[C@H](C[C@H](C[C@H](C[C@H](C[C@H](C[C@H](C[C@H](C[C@H](C[C@H](CCCCC)OC)OC)OC)OC)OC)OC)OC)OC)OC)OC | > 100 µM
N#CC(C#N)=C/C=C(\Sc1nc2ccccc2s1)c1ccc(Cl)cc1 | > 26.5 µM
Cn1c(=O)c2c(nc3n2CC(C(=O)O)N3)n(C)c1=O (stereo not given) | > 100 µM

Q. I would be grateful if you could share the reported TGI for `COc1ccc(/C=N/NC(=O)c2cccc3cc[nH]c23)cc1O` .
A. > 100 µM
